# assay notes: qHTS of pediatric cancer cell lines to identify multiple opportunities for drug repurposing: Confirmatory screen for Saos-2 cells (AID 1347127); note: nearly all actives have a fitted effect of over 60% in size; note: potency is the fitted concentration of half-maximal effect
# condition: Saos-2 osteosarcoma cell viability; series mostly up to 45.9 µM
Records with an inconclusive call do not appear. Calls of active or inactive are those of the source. Calls come from the whole dose curve; as a rule, active = well fitted cell-killing curve with a large enough effect; inconclusive = small, poorly fitted or top-dose-only effect, or effect the other way; inactive = no such curve, though single readings can be large or run the other way.
measured attribute: Potency

{"compound": "CC[C@@]1(O)C(=O)OCc2c1cc1n(c2=O)Cc2cc3c(CN(C)C)c(O)ccc3nc2-1", "measured attribute": "Potency", "reported measurement": "208 nM (active)"}
{"compound": "COC(=O)Nc1nc2ccc(C(=O)c3cccs3)cc2[nH]1", "measured attribute": "Potency", "reported measurement": "131 nM (active)"}
{"compound": "CS(=O)(=O)Nc1ccc([N+](=O)[O-])cc1Oc1ccccc1", "measured attribute": "Potency", "reported measurement": "inactive"}
{"compound": "NC(=O)NO", "measured attribute": "Potency", "reported measurement": "inactive"}
{"compound": "Clc1ccc(C(c2ccccc2Cl)C(Cl)Cl)cc1 (stereo unspecified)", "measured attribute": "Potency", "reported measurement": "inactive"}
{"compound": "CC(C)C(=O)Nc1ccc([N+](=O)[O-])c(C(F)(F)F)c1", "measured attribute": "Potency", "reported measurement": "inactive"}

###

# Tested on: 3D7
# assay notes: qHTS profiling for inhibitors of Plasmodium falciparum proliferation (AID 504749); note: nearly all actives have a fitted effect of over 60% in size
# condition: P. falciparum in erythrocytes, SYBR Green DNA, 72 h; series mostly up to 28.7 µM
# Protocol: NIH National Institute of Allergy and Infectious Diseases [NIAID] NIH Chemical Genomics Center [NCGC] […] Because mature erythrocytes lack DNA, only Plasmodium-derived DNA is detected. NCGC Assay Protocol Summary: The SYBR Green viability assay was adapted from a method described previously (Plouffe et al., 2008). […] The following morning, fluorescence intensity at 485(14) nm excitation and 535(25) nm emission wavelengths was measured on an EnVision (Perkin Elmer) plate reader. […]
Results filed as inconclusive are left out. The source made the active and inactive calls. Calls come from the whole dose curve; as a rule, active = well fitted inhibition curve with a large enough effect; inconclusive = small, poorly fitted or top-dose-only effect; inactive = flat fitted curve, though single readings scatter.
Labels: yes (1) for active, no (0) for inactive

{"compound": "Cn1c(=O)c2[nH]cnc2n(C)c1=O", "cat": "no (0)"}
{"compound": "CN1C(C(=O)Nc2ccccn2)=C(O)c2ccccc2S1(=O)=O", "cat": "no (0)"}
{"compound": "O=C1N(c2ccccc2)c2ccccc2C1(Cc1ccncc1)Cc1ccncc1", "cat": "no (0)"}
{"compound": "CN(C)C(=N)N=C(N)N", "cat": "no (0)"}
{"compound": "Cc1cc(C(C)(C)C)c(O)c(C)c1CC1=NCCN1", "cat": "no (0)"}
{"compound": "CCOC(=O)c1ncn2c1CN(C)C(=O)c1cc(F)ccc1-2", "cat": "no (0)"}
{"compound": "CN(C)CCC=C1c2ccccc2C=Cc2ccccc21", "cat": "no (0)"}
{"compound": "Clc1ccc2nsnc2c1NC1=NCCN1", "cat": "no (0)"}
{"compound": "COc1cc2c(c(OC)c1OC)-c1ccc(OC)c(=O)cc1[C@@H](NC(C)=O)CC2", "cat": "no (0)"}
{"compound": "Cc1ccc(C(=O)Nc2ccc(S(=O)(=O)O)c3cc(S(=O)(=O)O)cc(S(=O)(=O)O)c23)cc1NC(=O)c1cccc(NC(=O)Nc2cccc(C(=O)Nc3cc(C(=O)Nc4ccc(S(=O)(=O)O)c5cc(S(=O)(=O)O)cc(S(=O)(=O)O)c45)ccc3C)c2)c1", "cat": "no (0)"}
{"compound": "CNCCCC12CCC(c3ccccc31)c1ccccc12", "cat": "no (0)"}
{"compound": "CC#C[C@]1(O)CC[C@H]2[C@@H]3CCC4=CC(=O)CCC4=C3[C@@H](c3ccc(N(C)C)cc3)C[C@@]21C", "cat": "yes (1)"}
{"compound": "CC(C)NCC(O)c1ccc(O)c(O)c1 (configuration not stated)", "cat": "no (0)"}
{"compound": "C[C@](N)(Cc1ccc(O)c(O)c1)C(=O)O", "cat": "no (0)"}
{"compound": "CC[N+](CC)(CC)CCOc1cccc(OCC[N+](CC)(CC)CC)c1OCC[N+](CC)(CC)CC", "cat": "no (0)"}
{"compound": "NC12CC3CC(CC(C3)C1)C2", "cat": "no (0)"}
{"compound": "COc1ccccc1N1CCN(CC(O)COc2cccc3ccccc23)CC1 (configuration not stated)", "cat": "no (0)"}
{"compound": "CC(C)(Oc1ccc(C2CC2(Cl)Cl)cc1)C(=O)O (configuration not stated)", "cat": "no (0)"}
{"compound": "CC[C@@]1(O)C(=O)OCc2c1cc1n(c2=O)Cc2cc3c(CN(C)C)c(O)ccc3nc2-1", "cat": "yes (1)"}
{"compound": "NC(=O)NO", "cat": "no (0)"}
{"compound": "CC(C)C(=O)Nc1ccc([N+](=O)[O-])c(C(F)(F)F)c1", "cat": "no (0)"}
{"compound": "CN(C)CCCN1c2ccccc2CCc2ccc(Cl)cc21", "cat": "no (0)"}
{"compound": "O=C(c1ccc(OCCN2CCCCC2)cc1)c1c(-c2ccc(O)cc2)sc2cc(O)ccc12", "cat": "yes (1)"}
{"compound": "Nc1nc2c(ncn2COC(CO)CO)c(=O)[nH]1", "cat": "no (0)"}
{"compound": "OCCN1CCN(CCCN2c3ccccc3Sc3ccc(C(F)(F)F)cc32)CC1", "cat": "yes (1)"}
{"compound": "Nc1nnc(-c2cccc(Cl)c2Cl)c(N)n1", "cat": "no (0)"}
{"compound": "Cc1cn([C@H]2C=C[C@@H](CO)O2)c(=O)[nH]c1=O", "cat": "no (0)"}
{"compound": "CCCNCC(O)COc1ccccc1C(=O)CCc1ccccc1 (configuration not stated)", "cat": "yes (1)"}
{"compound": "NCCCCCC(=O)O", "cat": "no (0)"}
{"compound": "Cc1cnc(C(=O)NCCc2ccc(S(=O)(=O)NC(=O)NC3CCCCC3)cc2)cn1", "cat": "no (0)"}
{"compound": "Clc1ccc2c(c1)C(N1CCNCC1)=Nc1ccccc1O2", "cat": "no (0)"}
{"compound": "COC(=O)Nc1nc2ccc(C(=O)c3cccs3)cc2[nH]1", "cat": "no (0)"}
{"compound": "Cn1c(=O)c2c(ncn2C)n(C)c1=O", "cat": "no (0)"}
{"compound": "CN(Cc1cnc2nc(N)nc(N)c2n1)c1ccc(C(=O)N[C@@H](CCC(=O)O)C(=O)O)cc1", "cat": "yes (1)"}
{"compound": "CN(C)CCOC(c1ccccc1)c1ccccc1", "cat": "no (0)"}
{"compound": "COc1ccccc1OCC(O)CN1CCN(CC(=O)Nc2c(C)cccc2C)CC1 (configuration not stated)", "cat": "no (0)"}
{"compound": "CN1CCC(=C2c3ccccc3C=Cc3ccccc32)CC1", "cat": "no (0)"}
{"compound": "CS(=O)(=O)Nc1ccc([N+](=O)[O-])cc1Oc1ccccc1", "cat": "no (0)"}
{"compound": "CC(COc1ccccc1)N(CCCl)Cc1ccccc1 (configuration not stated)", "cat": "no (0)"}
{"compound": "CC(C)Cc1ccc(C(C)C(=O)O)cc1 (configuration not stated)", "cat": "no (0)"}
{"compound": "CC12CC3CC(C)(C1)CC(N)(C3)C2", "cat": "no (0)"}
{"compound": "NS(=O)(=O)c1cc2c(cc1Cl)NCNS2(=O)=O", "cat": "no (0)"}
